tested on: TDF; experiment: cell number relative to DMSO (% of DMSO); higher = more cells (less growth inhibition / toxicity); conditions: concentration: 10 µM; 24 h;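 note: TDF denotes transformed human dermal fibroblasts of mesenchymal origin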
Overview of recorded cell number for various molecules
Output spec: single numeric token, no unit.

Completed entries (count: 3):
• CCCCS(=O)(=O)N[C@@H](Cc1ccc(OCCCCC2CCNCC2)cc1)C(=O)O.Cl.O = 102
• CC(C)(CN1C(=O)C(Cl)=C(Cl)C1=O)CN1C(=O)C(Cl)=C(Cl)C1=O = 101
• O=C(Nc1cccc(C(=O)Nc2ccc(S(=O)(=O)[O-])c3cc(S(=O)(=O)[O-])cc(S(=O)(=O)[O-])c23)c1)Nc1cccc(C(=O)Nc2ccc(S(=O)(=O)[O-])c3cc(S(=O)(=O)[O-])cc(S(=O)(=O)[O-])c23)c1.[Na+].[Na+].[Na+].[Na+].[Na+].[Na+] = 110

Please look up its cell number: Oc1cc(O)c2c(c1)OC(c1ccc(O)c(O)c1)C(O)C2 (single isomer, unassigned; (+)) [(+)-Catechine]
105

Give its cell number value. Item: CC(C=CC1=C(C)CCCC1(C)C)=CC=CC(C)=CC(=O)Nc1ccc(O)cc1 [Retinoic acid p-hydroxyanilide]
85.3

If you can, please state the reported cell number value of Cc1ccccc1N1CCN(S(=O)(=O)CC23CCC(CC2NC(=O)C(N)CCS(C)(=O)=O)C3(C)C)CC1.Cl (stereo unspecified) .
104

====

Each item that follows carries a reported cell number.
test system: HCC1569; experiment: cell number relative to DMSO (% of DMSO); higher = more cells (less growth inhibition / toxicity); conditions: concentration: 10 µM; 24 h

• CCC1(c2ccccc2)NC(=O)N(C)C1=O (stereo not drawn) = 100

Quick one: cell number for c1cc(-c2sc(-c3ccncc3)c(-c3ccncc3)c2-c2ccncc2)ccn1 [4-[3,4,5-tri(4-pyridinyl)-2-thienyl]pyridine] ?
98.5

GET /values?readout=cell number&item= Nc1nc(Cl)nc2c1ncn2C1OC(COP(=O)([O-])OP(=O)([O-])OP(=O)([O-])[O-])C(O)C1O.[Na+].[Na+].[Na+].[Na+] (stereo not drawn) [2-Chloroadenosine triphosphate tetrasodium]
102

Report cell number for CC(=O)SCC[N+](C)(C)C.[Cl-] [Acetylthiocholine chloride] please.
102

Reported cell number for COc1cc(SC)ccc1C(=O)N1CCC(Cc2ccccc2)CC1 : what is it?
104

Bench note: what cell number did CCOc1cc2ncc(C#N)c(Nc3ccc(F)c(Cl)c3)c2cc1NC(=O)/C=C/CN(C)C show?
43.6

Which cell number value belongs to N#Cc1c(-c2ccccc2)cc(-c2cc(Br)ccc2O)[nH]c1=O ?
103

Please look up its cell number: CC(C(=O)O)c1ccc(-c2ccccc2)c(F)c1 (stereo not drawn)
98.6

Would you mind telling me what cell number value was observed for CCN(CC)CCCC(C)Nc1c2ccc(Cl)cc2nc2ccc(OC)cc12 (stereo not drawn) ?
89.3

Request the reported cell number associated with O=C(Oc1cc(S(=O)(=O)c2ccccc2)ccc1[N+](=O)[O-])c1ccc(Cl)cc1 [2-nitro-5-(phenylsulfonyl)phenyl 4-chlorobenzoate]
99.5

Consider the compound shown here: O=c1nc[nH]c2c1ncn2C1CCC(CO)O1 (stereo not drawn) What is its recorded cell number?
101

Query: cell number; subject: COc1cc(C=CC(=O)CC(=O)C=Cc2ccc(O)c(OC)c2)ccc1O
71.3

Fill blank: measured cell number of the compound Clc1cccc(CNC2=Nc3ccccc3NC23CCNCC3)c1 is ____.
99

Record request: cell number value, item Cl.O.O=C(O)CN(CCN(CC(=O)O)Cc1ccccc1O)Cc1ccccc1O
105

Which cell number value is on record for NC(C(=O)NC1C(=O)N2C(C(=O)O)=C(Cl)CSC12)c1ccccc1 (stereo not drawn) ?
101
